Values from ChEMBL document CHEMBL1126321

We begin with a simple list: items and their reported pIC50.
- Assay procedure: Concentration required for 50% reduction in KB cell number after 3-day incubation
- Type: functional, cell-based, Homo sapiens
pIC50 is a log-scale quantity: -log10 of the concentration expressed in molar.

COc1cc([C@@H]2c3cc4c(cc3[C@@H](Nc3cccc(O)c3)[C@H]3COC(=O)[C@H]23)OCO4)c(Cl)c(OC)c1O    5.24

# evaluate next
The reported pIC50 of the compound COc1cc([C@@H]2c3cc4c(cc3[C@@H](Nc3cccc(O)c3)[C@H]3COC(=O)[C@H]23)OCO4)cc(OC)c1O was 6.35

---

We begin with a simple list: items and their reported Complex formation.
- System: Nucleic Acid
- Assay procedure: Effect on cellular protein DNA complex formation(%) at 10 uM in comparison with etoposide
- Assay type: functional
# output: bare number, implied unit %

See these solved cases before continuing.
COc1cc([C@@H]2c3cc4c(cc3[C@@H](O[C@@H]3O[C@@H]5CO[C@@H](C)O[C@H]5[C@H](O)[C@H]3O)[C@H]3COC(=O)[C@H]23)OCO4)c(Cl)c(OC)c1O    6.1
COc1cc([C@@H]2c3cc4c(cc3[C@@H](Nc3ccc5c(c3)OCO5)[C@H]3COC(=O)[C@H]23)OCO4)cc(OC)c1O    279
COc1cc([C@@H]2c3cc4c(cc3[C@@H](O[C@@H]3O[C@@H]5CO[C@@H](C)O[C@H]5[C@H](O)[C@H]3O)[C@H]3COC(=O)[C@H]23)OCO4)cc(OC)c1O [ETOPOSIDE]    100
COc1cc([C@@H]2c3cc4c(cc3[C@@H](Nc3ccc(Br)cc3)[C@H]3COC(=O)[C@H]23)OCO4)c(Cl)c(OC)c1O    0
COc1cc([C@@H]2c3cc4c(cc3[C@@H](Nc3ccc(F)cc3)[C@H]3COC(=O)[C@H]23)OCO4)c(Cl)c(OC)c1O    0

The reported Complex formation of the compound COc1cc([C@@H]2c3cc4c(cc3[C@@H](O)[C@H]3COC(=O)[C@H]23)OCO4)c(Cl)c(OC)c1O was 15.6

The reported Complex formation of the compound COc1cc([C@@H]2c3cc4c(cc3[C@@H](Nc3cccc([N+](=O)[O-])c3)[C@H]3COC(=O)[C@H]23)OCO4)c(Cl)c(OC)c1O was 0
